Tested on: HEK-293T
Assay: Multiplex assay against HEK293T
Assay type: toxicity, cell-based
Conditions: human, 12 h, 1 µM, compound concentration 1 uM, replicate 1
Measured Quantity: Population Hoechst High Intensity Objects (%)
Reply with just the number (in %).

Recorded Population Hoechst High Intensity Objects (%) (compound COc1cc(C(=O)N(CCCc2ccccc2)Cc2ccc(CC(=O)O)cc2)cc(OC)c1C ): 5

Recorded Population Hoechst High Intensity Objects (%) (compound O=S(=O)(c1ccccc1)c1cnc2c(N3CCNCC3)cccc2c1 [INTEPIRDINE] ): 7

Recorded Population Hoechst High Intensity Objects (%) (compound CNC[C@H](O)c1ccc(O)c(O)c1 [EPINEPHRINE] ): 7

====

Population Mitochondria Different-Phenotype (%): recorded values
System: U2OS
Test: Multiplex assay against U2OS
Format: toxicity, cell-based
Conditions: human, 12 h, 1 µM, compound concentration 1 uM, replicate 1
Reply with just the number (in %).

Here are 2 compounds together with their reported answers.
Compound | Tgt | Result
Cc1ccc(C(C)(O)c2nc3ccccc3s2)c(C)c1 (centres undefined) | U2OS | 1
N#Cc1c(N)nc(SCc2csc(-c3ccc(Cl)cc3)n2)c(C#N)c1-c1ccc(OCCO)cc1 | U2OS | 4

Recorded Population Mitochondria Different-Phenotype (%) (compound CN1CCN(c2nc3cc(C(F)(F)F)ccc3n3cccc23)CC1.O=C(O)/C=C\C(=O)O.O=C(O)/C=C\C(=O)O ): 0

====

System: U2OS
Test: Multiplex assay against U2OS
Format: toxicity, cell-based
Conditions: human, 24 h, 10 µM, compound concentration 10 uM, replicate 1
Measured Quantity: Population Apoptotic (%)
Reply with just the number (in %).

Here are 2 compounds together with their reported answers.
Compound | Unit Name | Population Apoptotic (%)
CSCC[C@H](NC=O)C(=O)N[C@@H](CC(C)C)C(=O)N[C@@H](Cc1ccccc1)C(=O)O | % | 76
CC(C)(C)c1ccc(S(=O)(=O)Nc2ccc(Cl)cc2C(=O)c2cc[n+]([O-])cc2)cc1 | % | 76

Turning to the following compound.
Recorded Population Apoptotic (%) (compound CSc1ccccc1N1CCN(CCCCCC(=O)NC2CCCc3ccccc32)CC1.Cl (stereo not drawn) ): 89

====

Tested on: HEK-293T
Assay: Multiplex assay against HEK293T
Assay type: toxicity, cell-based
Details: human, 12 h, 10 µM, compound concentration 10 uM, replicate 1
Population Hoechst High Intensity Objects (%): recorded values
Mention the unit after the number when you answer.

Here are 8 molecules together with their reported answers.
Molecule | Result
CN1CCN2c3ncccc3Cc3ccccc3C2C1 (configuration not stated) [MIRTAZAPINE] | 6%
C[C@H](NC(=O)c1c(C(F)F)nn(C)c1Oc1cccc(C(F)(F)F)c1)c1ccc(C(=O)O)cc1 [PALUPIPRANT] | 7%
CCOc1c2c(c(OCC)c3ncccc13)CN(c1ccc(CS(=O)(=O)NC(=O)Cc3ccccc3OC)cc1C)C2=O | 4%
Cc1ccccc1C(=O)Nc1ccc(C(=O)N2CCCC(N(C)C)c3ccccc32)cc1.Cl (configuration not stated) | 8%
CN(C)CCCc1cc(C(=O)Nc2ccc(-c3ccncc3)cc2)ccc1O.Cl.Cl | 6%
Cc1nc2ccc(Oc3ccc(F)cc3)cc2c(=O)n1C[C@H]1CCCN(C(C)C)C1.Cl | 17%
O=C(O)c1cc2ccccc2c(Cc2c(O)c(C(=O)O)cc3ccccc23)c1O [PAMOIC ACID] | 8%
O=C(NCC(=O)N1CC[C@H](N[C@H]2CC[C@@](O)(c3ccc(-c4ncccn4)cn3)CC2)C1)c1cccc(C(F)(F)F)c1 [PF-4136309] | 7%

// returns Population Hoechst High Intensity Objects (%) for O=S(=O)(c1ccccc1)c1cnc2c(N3CCNCC3)cccc2c1 [INTEPIRDINE] with HEK-293T; value = 10%

// returns Population Hoechst High Intensity Objects (%) for CC(C)(C)c1ccc(S(=O)(=O)Nc2ccc(Cl)cc2C(=O)c2cc[n+]([O-])cc2)cc1 [VERCIRNON] with HEK-293T; value = 6%

// returns Population Hoechst High Intensity Objects (%) for c1cc(OCCCN2CCCCC2)ccc1CN1CCCCC1 [JNJ-5207852] with HEK-293T; value = 7%

// returns Population Hoechst High Intensity Objects (%) for Cc1ccc(-c2ccc(F)cc2COc2ccc(CCC(=O)O)cc2)cc1 with HEK-293T; value = 7%
